- system: human B1R receptor (hB1R) (Homo sapiens)
- Construct: host or cells: CHO K1 cells
- test description: FLIPR Ca2+ assay on human bradykinin 1 receptor (CHO K1 hB1R cells)
- Assay type: cell-based
- condition summary: test substance 10 μM; CHO K1 cells with human B1R gene; agonist Lys-Des-Arg9-bradykinin 0.5 nM; compared to maximum achievable inhibition
readout name: inhibition at 10 µM (%)

Below, each entry is followed by its recorded inhibition at 10 µM result.
INSERT INTO assay_data (compound, measurement) VALUES
  ('COc1c(C)cc(S(=O)(=O)N(C)CCOCC(=O)N2CCn3c(CN(C)C)ccc3C2c2cccs2)c(C)c1C (stereo not shown) [Example 112]', 101),
  ('COc1cc(C)c(S(=O)(=O)N(C)CCOCC(=O)N2CCn3cccc3C2C)c(C)c1C (stereo not shown) [Example 80]', 99);

A. COc1cc(C)c(S(=O)(=O)N(C)CCOCC(=O)N2CCn3cccc3C2c2ccc(Cl)nc2)c(C)c1C (stereo not shown) [Example 82]
B. CN1CCN(CCCc2ccc3n2CCN(C(=O)CC(NS(=O)(=O)c2ccc4ccccc4c2)c2ccccc2)C3)CC1 (stereo not shown) [Example 13]
Q: Field: entry with larger inhibition at 10 µM (options A / B ). I would appreciate it if you answered with the label of your choice.
Ans: A

----------
- system: human B1R receptor (hB1R) (Homo sapiens, UniProt P46663)
- Construct: host or cells: CHO K1 cells
- test description: FLIPR Ca2+ assay on human bradykinin 1 receptor (CHO K1 hB1R cells)
- Format: cell-based
- condition summary: test substance 10 μM; CHO K1 cells with human B1R gene; agonist Lys-Des-Arg9-bradykinin 0.5 nM; compared to maximum achievable inhibition
readout name: inhibition at 10 µM (%)

INSERT INTO measurements (molecule, readout_units, measurement) VALUES
  ('COc1cc(C)c(S(=O)(=O)N(CCOCC(=O)N2CCn3cccc3C2C(C)(C)C)Cc2ccccc2)c(C)c1 (stereo not drawn)', '%', 88),
  ('COc1cccc(C2c3cccn3CCN2C(=O)COCCN(C)S(=O)(=O)c2c(C)cc(C)cc2C)c1 (stereo not drawn)', '%', 101);

A. O=C(CC(NS(=O)(=O)c1ccc2ccccc2c1)c1ccccc1)N1CCn2c(CN3CCOCC3)ccc2C1 (stereo not drawn)
B. O=C(CC(NS(=O)(=O)c1ccc2ccccc2c1)c1ccccc1)N1CCn2c(ccc2-c2ccncc2)C1 (stereo not drawn)
C. COc1cc(C)c(S(=O)(=O)N(CCOCC(=O)N2CCn3cccc3C2CCc2ccccc2)Cc2ccccc2)c(C)c1 (stereo not drawn)
Q: Sort by inhibition at 10 µM, descending. Please express your ranking as an ordered list of the labels.
Ans: A, B, C
(A: 97%, B: 55%, C: 25%)

----------
- system: B1R receptor of rats (rB1R) (Rattus norvegicus)
- Construct: host or cells: CHO K1 cells
- Sequence (P97583 1-337): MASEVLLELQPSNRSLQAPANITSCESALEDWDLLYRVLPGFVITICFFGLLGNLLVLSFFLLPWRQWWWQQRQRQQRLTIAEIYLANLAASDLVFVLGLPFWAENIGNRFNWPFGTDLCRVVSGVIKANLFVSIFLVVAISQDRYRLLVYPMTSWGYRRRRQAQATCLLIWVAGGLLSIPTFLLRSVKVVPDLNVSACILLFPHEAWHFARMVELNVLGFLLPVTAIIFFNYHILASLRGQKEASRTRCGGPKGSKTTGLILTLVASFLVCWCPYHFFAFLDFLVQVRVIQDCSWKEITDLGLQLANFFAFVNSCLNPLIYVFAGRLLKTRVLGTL
- test description: FLIPR Ca2+ assay on rat bradykinin 1 receptor (CHO K1 rB1R cells)
- Format: cell-based
- condition summary: test substance 10 μM; CHO K1 cells with B1R gene of rats; agonist Des-Arg9-bradykinin 100 nM; compared to maximum achievable inhibition
readout name: inhibition at 10 µM (%)

INSERT INTO results (molecule, measurement) VALUES
  ('COc1cccc(C2c3cccn3CCN2C(=O)COCCN(C)S(=O)(=O)c2c(C)cc(C)cc2C)c1 (stereo not shown)', 97),
  ('CCCC1c2cccn2CCN1C(=O)COCCN(Cc1ccccc1)S(=O)(=O)c1c(C)cc(OC)cc1C (stereo not shown)', 87),
  ('O=C(C[C@@H](NS(=O)(=O)c1ccc2ccccc2c1)c1ccccc1)N1CCn2c(nc(CN3CCCCC3)c2Cl)C1', 97),
  ('COc1cc(C)c(S(=O)(=O)N(CCOCC(=O)N2CCn3cccc3C2C)Cc2ccccc2)c(C)c1 (stereo not shown)', 99),
  ('CCCC1c2cccn2CCN1C(=O)COCCN(CC(C)C)S(=O)(=O)c1c(C)cc(OC)c(C)c1C (stereo not shown)', 102),
  ('O=C(C[C@@H](NS(=O)(=O)c1ccc2ccccc2c1)c1ccccc1)N1CCn2c(CN3CCCCC3)nnc2C1', 102),
  ('COc1c(C)cc(S(=O)(=O)N(C)CCOCC(=O)N2CCn3cccc3C2C(C)(C)C)c(C)c1C (stereo not shown)', 98);

----------
- system: human B1R receptor (hB1R) (Homo sapiens, UniProt P46663)
- Construct: host or cells: CHO K1 cells
- Sequence (P46663 1-353): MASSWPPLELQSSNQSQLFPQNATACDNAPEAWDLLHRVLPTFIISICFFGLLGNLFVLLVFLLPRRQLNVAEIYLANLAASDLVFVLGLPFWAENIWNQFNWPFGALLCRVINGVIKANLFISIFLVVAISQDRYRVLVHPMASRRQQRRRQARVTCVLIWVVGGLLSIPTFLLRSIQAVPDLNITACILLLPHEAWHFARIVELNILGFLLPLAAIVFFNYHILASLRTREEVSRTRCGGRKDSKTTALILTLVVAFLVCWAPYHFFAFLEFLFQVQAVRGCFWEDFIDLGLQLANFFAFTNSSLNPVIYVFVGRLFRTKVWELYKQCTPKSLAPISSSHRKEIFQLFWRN
- test description: FLIPR Ca2+ assay on human bradykinin 1 receptor (CHO K1 hB1R cells)
- Type: cell-based
- condition summary: test substance 10 μM; CHO K1 cells with human B1R gene; agonist Lys-Des-Arg9-bradykinin 0.5 nM; compared to maximum achievable inhibition
readout name: inhibition at 10 µM (%)

INSERT INTO assay_data (molecule, readout_name, readout_units, measurement) VALUES
  ('COc1cc(C)c(S(=O)(=O)N(C)CCOCC(=O)N2CCn3cccc3C2c2ccc(C)c(C)c2)c(C)c1C (stereo not drawn) [Example 86]', 'inhibition at 10 µM', '%', 91),
  ('COc1ccc(C2c3cccn3CCN2C(=O)COCCN(C)S(=O)(=O)c2cc(C)c(OC)c(C)c2C)cc1 (stereo not drawn) [Example 31]', 'inhibition at 10 µM', '%', 95),
  ('COc1cc(C)c(S(=O)(=O)N(CCOCC(=O)N2CCn3cccc3C2C)Cc2ccccc2)c(C)c1 (stereo not drawn) [Example 45]', 'inhibition at 10 µM', '%', 83),
  ('COc1cc(C)c(S(=O)(=O)N(CCOCC(=O)N2CCn3cccc3C2c2ccc(Cl)nc2)CC(C)C)c(C)c1C (stereo not drawn) [Example 20]', 'inhibition at 10 µM', '%', 84),
  ('COc1cc(C)c(S(=O)(=O)N(C)CCOCC(=O)N2CCn3cccc3C2C(C)C)c(C)c1 (stereo not drawn) [Example 137]', 'inhibition at 10 µM', '%', 104),
  ('COc1cc(C)c(S(=O)(=O)N(CCOCC(=O)N2CCn3cccc3C2C(C)C)CC(C)C)c(C)c1C (stereo not drawn) [Example 102]', 'inhibition at 10 µM', '%', 96),
  ('COc1cc(C)c(S(=O)(=O)N(C)CCOCC(=O)N2CCn3c(ccc3-c3cccnc3)C2)c(C)c1 [Example 166]', 'inhibition at 10 µM', '%', 100),
  ('Cc1cc(C)c(S(=O)(=O)N(C)CCOCC(=O)N2CCn3cccc3C2c2cccnc2)c(C)c1 (stereo not drawn) [Example 67]', 'inhibition at 10 µM', '%', 99);

P. COc1cc(C)c(S(=O)(=O)N(C)CCOCC(=O)N2CCn3cccc3C2c2ccc(F)c(F)c2)c(C)c1C (stereo not drawn) [Example 85]
Q. O=C(CC(NS(=O)(=O)c1ccc2ccccc2c1)c1ccccc1)N1CCn2c(CCc3ccncc3)ccc2C1 (stereo not drawn) [Example 173]
Q: Field: entry with larger inhibition at 10 µM (options P / Q ). I would appreciate it if you answered with the label of your choice.
Ans: P

----------
- system: human B1R receptor (hB1R) (Homo sapiens, UniProt P46663)
- Construct: host or cells: CHO K1 cells
- test description: FLIPR Ca2+ assay on human bradykinin 1 receptor (CHO K1 hB1R cells)
- Assay type: cell-based
- condition summary: test substance 10 μM; CHO K1 cells with human B1R gene; agonist Lys-Des-Arg9-bradykinin 0.5 nM; compared to maximum achievable inhibition
readout name: inhibition at 10 µM (%)

Below, each entry is followed by its recorded inhibition at 10 µM result.
INSERT INTO assay_data (molecule, measurement) VALUES
  ('CCC1c2cccn2CCN1C(=O)COCCN(C)S(=O)(=O)c1cc(C)c(OC)c(C)c1C (stereo not shown) [Example 114]', 80),
  ('Cc1cc(C)c(S(=O)(=O)N(C)CCOCC(=O)N2CCn3c(CN4CCCCC4)ccc3C2c2ccccc2)c(C)c1 (stereo not shown) [Example 141]', 103);

P. O=C(CC(NS(=O)(=O)c1ccc2ccccc2c1)c1ccccc1)N1CCn2c(Cc3cccnc3)ccc2C1 (stereo not shown) [Example 176]
Q. CCCCC1c2ccc(CN(C)C)n2CCN1C(=O)COCCN(CC(C)C)S(=O)(=O)c1c(C)cc(OC)c(C)c1C (stereo not shown) [Example 97]
Q: Could you check which of P and Q has a smaller value for inhibition at 10 µM? I would appreciate it if you answered with the label of your choice.
Ans: P
